# Test system: human lung cancer strain NCI-H441
# Type: cell-based
Where a SMILES comes first, the peptide text is derived from it. Bridges are numbered along the chain shown (N, C = ends). [ ]: non-standard residue; d: D form. The star is where a group is joined. hPhe(3-Cl-4-CF3) = N[C@@H](CCc1ccc(C(F)(F)F)c(Cl)c1)C(=O)O; NPrPhe(4-CF3) = CCCN[C@@H](Cc1ccc(C(F)(F)F)cc1)C(=O)O; NMeGly(cPent) = CN[C@H](C(=O)O)C1CCCC1; NMeD = CN[C@@H](CC(=O)O)C(=O)O; NMeL = CN[C@@H](CC(C)C)C(=O)O; Morpholide = C1CN(*)CCO1; Ac5c = NC1(C(=O)O)CCCC1; Aze = O=C(O)[C@@H]1CCN1; NcPrGly = O=C(O)CNC1CC1; Sar = CNCC(=O)O
The reader will find reported IC50 values listed item by item below.
test_readout: IC50 (nM)

molecule=CCO[C@@H]1C[C@H]2C(=O)NC3(CCC3)C(=O)N(C)[C@@H](C3CCCC3)C(=O)N(C)[C@H](C(=O)N(C)C)CC(=O)N(C)[C@@H](CCC(=O)N(C)C)C(=O)N[C@@H]([C@@H](C)CC)C(=O)N(C)CC(=O)N(C)[C@H]3C/C=C\CCN(C3=O)[C@@H](Cc3ccc(C(F)(F)F)cc3)C(=O)N(C)CC(=O)N[C@@H](CCc3cc(F)c(C(F)(F)F)c(F)c3)C(=O)N2C1 numeric_result=275
molecule="CCCN1C(=O)[C@@H]2CCN2C(=O)CN(C2CC2)C(=O)[C@H]([C@@H](C)CC)NC(=O)[C@H](CC(C)C)N(C)C(=O)C[C@@H](C(=O)N2CCOCC2)N(C)C(=O)[C@H](C2CCCC2)N(C)C(=O)C2(CCCC2)NC(=O)[C@@H]2CCCN2C(=O)[C@H](CCc2ccc(C(F)(F)F)c(Cl)c2)NC(=O)CN(C)C(=O)[C@@H]1Cc1ccc(C(F)(F)F)cc1 [PP0273] ([NMeL]I[NcPrGly][Aze][NPrPhe(4-CF3)][Sar][hPhe(3-Cl-4-CF3)]P[Ac5c][NMeGly(cPent)][NMeD]-Morpholide; lactam N-11)" numeric_result=12.2
molecule=CC[C@H](C)[C@@H]1NC(=O)[C@H](CC(C)C)N(C)C(=O)C[C@@H](C(=O)N(C)CC)N(C)C(=O)[C@H](C2CCCC2)N(C)C(=O)C2(CCC2)NC(=O)[C@@H]2C[C@H](C)CN2C(=O)[C@H](CCc2ccc(C(F)(F)F)c(OC)c2)NC(=O)CN(C)C(=O)[C@H](Cc2ccc(C)cc2)N2CC/C=C\C[C@@H](C2=O)N(C)C(=O)CN(C)C1=O numeric_result=18.3

---

# assayed_system: UniProt:P01116
# Sequence (P01116 1-188 isoform P01116-2): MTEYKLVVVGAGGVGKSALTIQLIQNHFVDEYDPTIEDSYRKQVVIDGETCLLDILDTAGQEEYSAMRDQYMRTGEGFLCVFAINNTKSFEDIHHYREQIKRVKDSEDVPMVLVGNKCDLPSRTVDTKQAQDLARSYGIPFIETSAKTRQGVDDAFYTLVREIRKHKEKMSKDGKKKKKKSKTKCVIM
# procedure_summary: Binding to KRAS by surface plasmon resonance (SPR), dissociation constant KD
# protocol_conditions: Single Cycle Kinetics, 1:1 binding model
test_readout: Kd (nM)

compound="CC[C@H](C)[C@@H]1NC(=O)[C@H](CC(C)C)N(C)C(=O)C[C@@H](C(=O)N2CCOCC2)N(C)C(=O)[C@H](C2CCCC2)N(C)C(=O)C2(CCCC2)NC(=O)[C@@H]2CCCN2C(=O)[C@H](CCc2ccc(C(F)(F)F)c(Cl)c2)NC(=O)CN(C)C(=O)[C@H](Cc2ccc(F)cc2)N2CCCC[C@@H](C2=O)N(C)C(=O)CN(C)C1=O [PP0530]" assayed_system=UniProt:P01116 numeric_result=0.06
compound="CCO[C@@H]1C[C@H]2C(=O)NC3(CCC3)C(=O)N(C)[C@@H](C(CC)CC)C(=O)N(C)[C@H](C(=O)N(C)C)CC(=O)N(C)[C@@H](CC3CC3)C(=O)N[C@@H]([C@@H](C)CC)C(=O)N(C)CC(=O)N(C)[C@H]3C/C=C\\CCN(C3=O)[C@@H](CC3CCCCC3)C(=O)N(C)CC(=O)N[C@@H](CCc3cc(F)c(C(F)(F)F)c(F)c3)C(=O)N2C1 [PP1428]" assayed_system=UniProt:P01116 numeric_result=0.87
compound="CCO[C@@H]1C[C@H]2C(=O)NC3(CC(C)(C)C3)C(=O)N(C)[C@@H](C(CC)CC)C(=O)N(C)[C@H](C(=O)N(C)C)CC(=O)N(C)[C@@H](C(C)C)C(=O)N[C@@H]([C@@H](C)CC)C(=O)N(C)CC(=O)N(C)[C@H]3C/C=C\\CCN(C3=O)[C@@H](Cc3ccc(C)cc3)C(=O)N(C)CC(=O)N[C@@H](CCc3cc(F)c(C(F)(F)F)c(F)c3)C(=O)N2C1 [PP2153]" assayed_system=UniProt:P01116 numeric_result=0.49
compound="CCO[C@@H]1C[C@H]2C(=O)NC3(CC(C)(C)C3)C(=O)N(C)[C@@H](C(CC)CC)C(=O)N(C)[C@H](C(=O)N(C)C)CC(=O)N(C)[C@@H](CC3CC3)C(=O)N[C@@H]([C@@H](C)CC)C(=O)N(C)CC(=O)N(C)[C@H]3C/C=C\\CCN(C3=O)[C@@H](Cc3ccc(C)cc3)C(=O)N(C)CC(=O)N[C@@H](CCc3ccc(Cl)c(Cl)c3)C(=O)N2C1 [PP2182]" assayed_system=UniProt:P01116 numeric_result=0.72
compound="CCO[C@@H]1C[C@H]2C(=O)NC3(CCC3)C(=O)N(C)[C@@H](C3CCCC3)C(=O)N(C)[C@H](C(=O)N3CCOCC3)CC(=O)N(C)[C@@H](CC(C)(C)C)C(=O)N[C@@H]([C@@H](C)CC)C(=O)N(C)CC(=O)N(C)[C@H]3CCCCCN(C3=O)[C@@H](Cc3ccc(C(F)(F)F)cc3)C(=O)N(C)CC(=O)N[C@@H](CCc3cc(F)c(C(F)(F)F)c(F)c3)C(=O)N2C1 [PP0684]" assayed_system=UniProt:P01116 numeric_result=1.1
compound="CCO[C@@H]1C[C@H]2C(=O)NC3(CCC3)C(=O)N(C)[C@@H](C3CCCC3)C(=O)N(C)[C@H](C(=O)N(C)C)CC(=O)N(C)[C@@H](CC3CC3)C(=O)N[C@@H]([C@@H](C)CC)C(=O)N(C)CC(=O)N(C)[C@H]3C/C=C\\CCN(C3=O)[C@@H](Cc3ccc(C)cc3)C(=O)N(C)CC(=O)N[C@@H](CCc3cc(F)c(Cl)c(F)c3)C(=O)N2C1 [PP1484]" assayed_system=UniProt:P01116 numeric_result=0.45

---

# System: human lung cancer strain NCI-H441
# Type: cell-based
*1 amine or outer side, *2 acyl side, *3 side chain or, on linkers, in order; H or OH if unused. Where a SMILES comes first, the peptide text is derived from it. Bridges are numbered along the chain shown (N, C = ends). [ ]: non-standard residue; d: D form. The star is where a group is joined. hPhe(3-Cl-4-CF3) = N[C@@H](CCc1ccc(C(F)(F)F)c(Cl)c1)C(=O)O; X18 = CCCCN([C@@H](Cc1ccc(C(F)(F)F)cc1)C(=O)[*:2])[*:1]; NMeGly(cPent) = CN[C@H](C(=O)O)C1CCCC1; NMeD = CN[C@@H](CC(=O)O)C(=O)O; NMeL = CN[C@@H](CC(C)C)C(=O)O; Morpholide = C1CN(*)CCO1; Ac5c = NC1(C(=O)O)CCCC1; Sar = CNCC(=O)O
The reader will find reported IC50 values listed item by item below.
test_readout: IC50 (nM)

compound=CCO[C@@H]1C[C@H]2C(=O)NC3(CCC3)C(=O)N(C)[C@@H](C3CCCC3)C(=O)N(CC)[C@H](C(=O)N3CCOCC3)CC(=O)N(C)[C@@H](COC)C(=O)N[C@@H]([C@@H](C)CC)C(=O)N(C)CC(=O)N(C)[C@H]3CCCCCN(C3=O)[C@@H](Cc3ccc(C(F)(F)F)cc3)C(=O)N(C)CC(=O)N[C@@H](CCc3cc(F)c(C(F)(F)F)c(F)c3)C(=O)N2C1 numeric_result=378
compound="CCCCN1C(=O)CN(C)C(=O)CN(C)C(=O)[C@H]([C@@H](C)CC)NC(=O)[C@H](CC(C)C)N(C)C(=O)C[C@@H](C(=O)N2CCOCC2)N(C)C(=O)[C@H](C2CCCC2)N(C)C(=O)C2(CCCC2)NC(=O)[C@@H]2CCCN2C(=O)[C@H](CCc2ccc(C(F)(F)F)c(Cl)c2)NC(=O)CN(C)C(=O)[C@@H]1Cc1ccc(C(F)(F)F)cc1 [PP0120] ([NMeL]I[Sar][Sar][X18][Sar][hPhe(3-Cl-4-CF3)]P[Ac5c][NMeGly(cPent)][NMeD]-Morpholide; lactam N-11)" numeric_result=5.6
compound=CCO[C@@H]1C[C@H]2C(=O)NC3(CCC3)C(=O)N(C)[C@@H](C(CC)CC)C(=O)N(C)[C@H](C(=O)N(C)C)CC(=O)N(C)[C@@H](CC(C)C)C(=O)N[C@@H]([C@@H](C)CC)C(=O)N(C)CC(=O)N(C)[C@H]3C/C=C\CCN(C3=O)[C@@H](Cc3ccc(F)cc3C)C(=O)N(C)CC(=O)N[C@@H](CCc3cc(F)c(C(F)(F)F)c(F)c3)C(=O)N2C1 numeric_result=49.4
compound=CCO[C@@H]1C[C@H]2C(=O)NC3(CC(C)(C)C3)C(=O)N(C)[C@@H](C3CCCC3)C(=O)N(C)[C@H](C(=O)N(C)CC)CC(=O)N(C)[C@@H](CC(C)C)C(=O)N[C@@H]([C@@H](C)CC)C(=O)N(C)CC(=O)N(C)[C@H]3C/C=C\CCN(C3=O)[C@@H](Cc3ccc(C(F)F)cc3)C(=O)N(C)CC(=O)N[C@@H](CCc3ccc(C(F)(F)F)c(CC)c3)C(=O)N2C1 numeric_result=9.8
compound=CC[C@H](C)[C@@H]1NC(=O)[C@H](CC(C)C)N(C)C(=O)C[C@@H](C(=O)N2CCOCC2)N(C)C(=O)[C@H](C2CCCC2)N(C)C(=O)C2(CC2)NC(=O)[C@@H]2CCCN2C(=O)[C@H](CCc2cc(F)c(C(F)(F)F)c(F)c2)NC(=O)CN(C)C(=O)[C@H](Cc2ccc(C(F)(F)F)cc2)N2CCCCC[C@@H](C2=O)N(C)C(=O)CN(C)C1=O numeric_result=399
